The reported measurements were obtained from patent US20230391826A1.

target_or_system: EphA2 endogenously expressed on PC3 prostate cancer cells (UniProt P29317 24-976, limits assumed)
Sequence (P29317 24-976 limits assumed): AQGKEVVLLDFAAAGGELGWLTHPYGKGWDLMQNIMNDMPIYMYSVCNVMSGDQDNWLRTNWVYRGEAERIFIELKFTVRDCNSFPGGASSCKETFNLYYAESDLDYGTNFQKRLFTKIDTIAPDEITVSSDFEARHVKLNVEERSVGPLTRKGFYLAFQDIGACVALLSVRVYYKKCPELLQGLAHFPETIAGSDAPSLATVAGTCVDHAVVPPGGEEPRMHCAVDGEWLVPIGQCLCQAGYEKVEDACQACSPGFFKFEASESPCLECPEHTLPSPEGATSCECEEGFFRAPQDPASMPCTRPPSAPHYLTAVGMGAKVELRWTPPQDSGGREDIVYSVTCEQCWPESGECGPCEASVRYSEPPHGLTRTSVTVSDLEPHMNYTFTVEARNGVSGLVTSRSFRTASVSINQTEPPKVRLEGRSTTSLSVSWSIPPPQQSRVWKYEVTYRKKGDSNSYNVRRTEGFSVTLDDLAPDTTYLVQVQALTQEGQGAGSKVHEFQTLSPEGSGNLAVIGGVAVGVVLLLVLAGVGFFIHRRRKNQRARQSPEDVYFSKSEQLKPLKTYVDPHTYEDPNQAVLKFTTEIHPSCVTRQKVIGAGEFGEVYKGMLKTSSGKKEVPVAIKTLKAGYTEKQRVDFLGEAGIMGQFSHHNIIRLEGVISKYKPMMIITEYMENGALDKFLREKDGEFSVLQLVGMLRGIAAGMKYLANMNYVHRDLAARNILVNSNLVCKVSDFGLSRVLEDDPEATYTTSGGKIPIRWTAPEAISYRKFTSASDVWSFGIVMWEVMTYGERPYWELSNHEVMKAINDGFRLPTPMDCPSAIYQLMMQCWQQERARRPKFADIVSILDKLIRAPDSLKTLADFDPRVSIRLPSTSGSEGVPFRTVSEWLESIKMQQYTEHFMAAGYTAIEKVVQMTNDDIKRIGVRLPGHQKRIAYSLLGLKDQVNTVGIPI
assay_comment: cell-based or functional assay
Where no end group is shown, it is not given here. [ ]: non-standard residue; d: D form. βAla = NCCC(=O)O
Some binders, each annotated with its measured Blig (bias factor).

Some solved entries appear below for comparison.
CGAWLAYPDSVPYRPK (also: N-terminally disulfide-linked homodimer, disulfide at 1, other end not in the chain, also called dimer (5); dimeric peptide (5)) [CGA-WLA-YRPK dimer (N-ter)] | 0.81
CGAWLAYPDSVPYRPK-NH2 (also: homodimer: N-terminal Cys of two chains joined by disulfide) [CGA-WLA-YRPKam dimer (N-ter)] | 0.36
[βAla]WLAYPDSVPYRPKC (also: homodimer, disulfide at 15, other end not in the chain, C-terminally disulfide-linked homodimer made from monomer (19*); also called dimer (2); dimeric peptide (2)) [βA-WLA-YRPKC dimer (C-ter)] | 1.28
Lys-linked dimer (C-ter) (also: bond at chain A 15 to a chain's C-terminus) peptide 1: [βAla]WLAYPDSVPYRPKK peptide 2: [βAla]WLAYPDSVPYRPK | 0.79

Read the next record carefully.
Lookup: Given Click dimer (N-ter) (not fully specified; propargylglycine (Pra) at position 1, joined by a click linkage to KN3 of the other chain; C-terminal amide; azido-lysine (KN3) at position 1, joined by a click linkage to Pra of the other chain; C-terminal amide) peptide 1: KAWLAYPDSVPYRPK peptide 2: XGAWLAYPDSVPYRPK , respond with its Blig (bias factor).
Found: 0.93
